Tested on: soybean
assay.explanation: Test C postemergence
Assay type: in vivo, Glycine max
test.parameters: 125 g ai/ha
measurement.label: Plant response rating (scale of 0 to 100 where 0 is no effect and 100 is complete control)

Field: example entries. Status: answers known.
[[record]]
smiles_structure = "COc1nc(-c2ccc(C(F)(F)F)cc2)nn1Cc1ccnc(C(F)(F)F)c1"
measured_value = 50

[[record]]
smiles_structure = "COc1nc(-c2ccc(Cl)cc2)nn1Cc1ccnc(C(F)(F)F)c1"
measured_value = 55

[[record]]
smiles_structure = "CCc1nc(-c2ccc(C(F)(F)F)cc2)nn1Cc1ccnc(C(F)(F)F)c1"
measured_value = 50

[[record]]
smiles_structure = "CCOc1nc(-c2ccc(F)cc2)nn1Cc1ccnc(C(F)(F)F)c1"
measured_value = 95


Input: Dear colleague, I am looking for the recorded Plant response rating (scale of 0 to 100 where 0 is no effect and 100 is complete control) of the following compound: CCOc1nc(-c2ccc(C(F)(F)F)cc2)nn1Cc1ccnc(C(F)(F)F)c1
Output: 65

----------
System: nutsedge, yellow
assay.explanation: Test C postemergence
Type: in vivo, Cyperus esculentus
test.parameters: 250 g ai/ha
Source text: […]
measurement.label: Plant response rating (scale of 0 to 100 where 0 is no effect and 100 is complete control)
Hey, just send me the number, nothing else.

[[record]]
compound = "COc1nc(-c2ccc(Cl)cc2)nn1Cc1ccnc(C(F)(F)F)c1 [Compound 28]"
measured_value = 10


Input: State the recorded Plant response rating (scale of 0 to 100 where 0 is no effect and 100 is complete control) for this entry: CCOc1nc(-c2ccccc2)nn1Cc1ccnc(C(F)(F)F)c1 [Compound 27]
Output: 10

Input: Data request, read-out Plant response rating (scale of 0 to 100 where 0 is no effect and 100 is complete control), for CCCOc1nc(-c2ccccc2)nn1Cc1ccnc(C(F)(F)F)c1 [Compound 33]
Output: 15

Input: Bench note: what Plant response rating (scale of 0 to 100 where 0 is no effect and 100 is complete control) did FC(F)(F)COc1nc(-c2ccc(Cl)cc2)nn1Cc1ccnc(C(F)(F)F)c1 [Compound 31] show?
Output: 35

Input: Look at this compound and give its reported Plant response rating (scale of 0 to 100 where 0 is no effect and 100 is complete control). FC(F)(F)COc1nc(-c2ccccc2)nn1Cc1ccnc(C(F)(F)F)c1 [Compound 24]
Output: 25

----------
# Plant response rating (scale of 0 to 100 where 0 is no effect and 100 is complete control) per entry
Tested on: wheat (winter wheat)
assay.explanation: Test C postemergence
Type: in vivo, Triticum aestivum
test.parameters: 62 g ai/ha
Respond with the number and no other words.

# annotated cases, reported Plant response rating (scale of 0 to 100 where 0 is no effect and 100 is complete control) shown
[[record]]
molecule = "CCCOc1nc(-c2ccccc2)nn1Cc1ccnc(C(F)(F)F)c1 [Compound 33]"
measured_value = 5

[[record]]
molecule = "Fc1ccc(-c2nc(OCC(F)(F)F)n(Cc3ccnc(C(F)(F)F)c3)n2)cc1 [Compound 30]"
measured_value = 5

[[record]]
molecule = "CCOc1nc(-c2ccc(Cl)cc2)nn1Cc1ccnc(C(F)(F)F)c1 [Compound 26]"
measured_value = 10

[[record]]
molecule = "COc1nc(-c2ccccc2)nn1Cc1ccnc(C(F)(F)F)c1 [Compound 32]"
measured_value = 0


Please examine the following record next.
Input: # input molecule: FC(F)(F)COc1nc(-c2ccc(Cl)cc2)nn1Cc1ccnc(C(F)(F)F)c1 [Compound 31] ; wanted: its Plant response rating (scale of 0 to 100 where 0 is no effect and 100 is complete control)
Output: 5
